The values you see were collected from PubChem BioAssay AID1963981.

# Test system: 354836-022-R-J1-PDC multicell spheroid viability
# Procedure text: Anticancer human tumor 354836-022-R-J1-PDC patient-derived head and neck squamous cell carcinoma cell line growth inhibition [PI3K]; active means viability on the fitted dose curve at most 10% of control; inactive means the rest
# Condition info: second compound 1 µM; first compound 0.316 µM
Bench note: report the call from 1 = active, -1 = inactive

Example results:
INSERT INTO results (compound, group) VALUES
  ('C#Cc1c(F)ccc2cc(O)cc(-c3ncc4c(N5CC6CCC(C5)N6)nc(OCC56CCCN5CC(F)C6)nc4c3F)c12 (stereo not given) + COc1c(OCCCN2CCOCC2)ccc2c3n(c(=NC(=O)c4cnc(N)nc4)nc12)CCN3', 1),
  ('CC(Cn1ccc(-c2ccc(C#N)c(Cl)c2)n1)NC(=O)c1cc(C(C)O)[nH]n1 (stereo not given) + CC(Nc1ncnc2nc[nH]c12)c1cc2cccc(Cl)c2c(=O)n1-c1ccccc1', -1),
  ('C=CC(=O)N1CCN(c2nc(=O)n(-c3c(C)ccnc3C(C)C)c3nc(-c4c(O)cccc4F)c(F)cc23)C(C)C1 (stereo not given) + COc1c(OCCCN2CCOCC2)ccc2c3n(c(=NC(=O)c4cnc(N)nc4)nc12)CCN3', 1),
  ('CC(Cn1ccc(-c2ccc(C#N)c(Cl)c2)n1)NC(=O)c1cc(C(C)O)[nH]n1 (stereo not given) + COc1c(OCCCN2CCOCC2)ccc2c3n(c(=NC(=O)c4cnc(N)nc4)nc12)CCN3', 1);

Now for another entry.
Each compound tested received a call. Report the one for CC(C)NCC(C(=O)N1CCN(c2ncnc3c2C(C)CC3O)CC1)c1ccc(Cl)cc1 (stereo not given) + CC(Nc1ccc2c(c1)OCCn1cc(N3C(=O)OCC3C(F)F)nc1-2)C(N)=O .
-1

====

Please respond with reported viability, T/C for every item in the list.
# Tested on: 354836-022-R-J1-PDC multicell spheroid viability
# Procedure text: Anticancer human tumor 354836-022-R-J1-PDC cell line growth inhibition [PI3K];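 further: spheroids exposed to agents for seven days before the viability read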
# Condition info: second compound 0.0316 µM; first compound 3.16 µM; active compounds read low
# Excerpt: Combinatorial screen of targeted agents with the PI3K inhibitors inavolisib, alpelisib, duvelisib, and copanlisib in multi-cell type tumor spheroids A high-throughput screen of multi-cell type tumor spheroids was designed to identify active combinations of targeted small molecules and PI3K pathway inhibitors. […] Compounds. […] If the clinical Cmax for an agent had not been determined, the highest concentration tested was 10 microM. […]
Answers are plain numbers, in %.

INSERT INTO measurements (compound, measured_target, result_unit, recorded_result) VALUES
  ('C#Cc1c(F)ccc2cc(O)cc(-c3ncc4c(N5CC6CCC(C5)N6)nc(OCC56CCCN5CC(F)C6)nc4c3F)c12 (stereo not given) + CC(Nc1ccc2c(c1)OCCn1cc(N3C(=O)OCC3C(F)F)nc1-2)C(N)=O', '354836-022-R-J1-PDC multicell spheroid viability', '%', 97.8),
  ('CC(Cn1ccc(-c2ccc(C#N)c(Cl)c2)n1)NC(=O)c1cc(C(C)O)[nH]n1 (stereo not given) + COc1c(OCCCN2CCOCC2)ccc2c3n(c(=NC(=O)c4cnc(N)nc4)nc12)CCN3', '354836-022-R-J1-PDC multicell spheroid viability', '%', 88.5),
  ('C[C@@H](NC(=O)c1ncnc(N)c1Cl)c1ncc(C(=O)Nc2cc(C(F)(F)F)c(Cl)cn2)s1 + CC(Nc1ncnc2nc[nH]c12)c1cc2cccc(Cl)c2c(=O)n1-c1ccccc1', '354836-022-R-J1-PDC multicell spheroid viability', '%', 99.7),
  ('Cn1nccc1Nc1nccc(-c2ccn(C(CO)c3ccc(Cl)c(F)c3)c(=O)c2)n1 (stereo not given) + CC(Nc1ncnc2nc[nH]c12)c1cc2cccc(Cl)c2c(=O)n1-c1ccccc1', '354836-022-R-J1-PDC multicell spheroid viability', '%', 89.3);

Any idea what viability, T/C was measured for CC1(C)CCC(Nc2ncc(C(F)(F)F)c(-c3c[nH]c4c(P(C)(C)=O)c(C#N)ccc34)n2)CN1 (stereo not given) + CC(Nc1ccc2c(c1)OCCn1cc(N3C(=O)OCC3C(F)F)nc1-2)C(N)=O ?
23.6
